Assay: Biodistribution of 99mTc(N)(X)(DTC)+ heterocomplexes in rats
Assay type: in vivo, male Spraque-Dawley rats (SD rats)
Conditions: 10 min after injection
measureName: Kidney % dose/g (% dose/g)

Solved entries (count: 2):
molecule | measureName | numericReadout
COCCC[P]1(CCCOC)CCN(CCOC)CC[P](CCCOC)(CCCOC)[99Tc+]12(#[N])[NH]N(C)C(SC)=[S]2 [^99mTc(N)(PNP3)(DTC)^+] | Kidney % dose/g | 6.559
CCCN1CC[P+](c2ccccc2)(c2ccccc2)[99Tc-2]2(#[N])([NH]N(C)C(SC)=[S+]2)[P+](c2ccccc2)(c2ccccc2)CC1 [^99mTc(N)(PNP1)(DTC)^+] | Kidney % dose/g | 4.251

1. CSC1=[S+][99Tc-2]2(#[N])([NH]N1C)[P+](c1ccccc1)(c1ccccc1)CCOCC[P+]2(c1ccccc1)c1ccccc1 [^99mTc(N)(POP)(DTC)^+]
2. COCCN1CC[P+](c2ccccc2)(c2ccccc2)[99Tc-2]2(#[N])([NH]N(C)C(SC)=[S+]2)[P+](c2ccccc2)(c2ccccc2)CC1 [^99mTc(N)(PNP2)(DTC)^+]
Could you kindly indicate whether 1 or 2 has the higher Kidney % dose/g value? Please reply using the label of the selected record.
2
(2: 6.910 % dose/g, 1: 4.805 % dose/g)
